# System: HEK-293T
# protocol: Multiplex assay against HEK293T
# Format: toxicity, cell-based
# condition_details: human, 48 h, 10 µM, compound concentration 10 uM, replicate 2
measurement_type: Total Cell Count
Just the number.

Cc1c(CC(=O)O)c2cccnc2n1Cc1ccc(S(C)(=O)=O)cc1C(F)(F)F
491

Identify Total Cell Count associated with the compound `O=C(CCCc1ccccc1)Nc1nc2ccccc2c(=O)s1`
567

Identify Total Cell Count associated with the compound CCCCCC(O)/C=C/[C@H]1C(=O)CC(O)C1C/C=C\CCCC(=O)O (stereo not given in full)
544

Identify Total Cell Count associated with the compound O=C(NCCN1CCC(n2c(=O)[nH]c3cc(Cl)ccc32)CC1)c1ccc(F)cc1 [HALOPEMIDE]
531

Identify Total Cell Count associated with the compound `CN[C@@H](C)C(=O)N[C@H](C(=O)N1CCC[C@H]1C(=O)Nc1snnc1-c1ccccc1)C1CCCCC1`
417

----------
# Test system: Fibroblast
# protocol: Multiplex assay against human fibroblast
# Assay type: toxicity, cell-based
# condition_details: 12 h, 10 µM, compound concentration 10 uM, replicate 2
Label TRUE when Population Healthy Nuclei (%) is strictly below 40%; at or above that, label FALSE.

C[C@H](N)COC(=O)[C@@H](CCCCN)NC(=O)Cc1c(-c2ccc3ccccc3c2)[nH]c2c1ccc1ccccc12
FALSE
CCCCC(=O)N(Cc1ccc(-c2ccccc2-c2nnn[nH]2)cc1)[C@H](C(=O)O)C(C)C
FALSE
O=C(NCCN1CCC(n2c(=O)[nH]c3cc(Cl)ccc32)CC1)c1ccc(F)cc1 [HALOPEMIDE]
TRUE
COC[C@@H](c1ccc(C(F)(F)F)cc1)N1CCN(C2(C)CCN(C(=O)c3c(C)ncnc3C)CC2)C[C@@H]1C.O=C(O)/C=C\C(=O)O [VICRIVIROC MALEATE]
TRUE
CN(C)C(=O)Cn1cc(-c2ccc(-c3cncc4ccccc34)cc2)cn1
FALSE
CN[C@@H](C)C(=O)N[C@H](C(=O)N1CCC[C@H]1C(=O)Nc1snnc1-c1ccccc1)C1CCCCC1 [GDC-0152]
TRUE
Cc1noc(-c2ccc(-c3ccc(CC(=O)O)cc3)cc2)c1NC(=O)O[C@H](C)c1ccccc1Cl
FALSE
Cc1sc2c(c1C)C(c1ccc(Cl)cc1)=N[C@@H](CC(=O)NCCCCCCCCNC(=O)COc1cccc3c1C(=O)N(C1CCC(=O)NC1=O)C3=O)c1nnc(C)n1-2 (stereo not given in full)
TRUE

Consider the compound CC(C)(C)c1cc(NC(=O)Nc2ccc(-c3cn4c(n3)sc3cc(OCCN5CCOCC5)ccc34)cc2)no1 [QUIZARTINIB] . Is its Population Healthy Nuclei (%) strictly less than 40%?
FALSE

Consider the compound `O=C1[C@H](Cc2ccc(O)cc2)N2C(=O)CCN(C(=O)NCc3ccccc3)[C@H]2CN1Cc1cccc2ccccc12` . Is its Population Healthy Nuclei (%) strictly less than 40%?
FALSE

Consider the compound CCCCCC(O)/C=C/[C@H]1C(=O)CC(O)C1C/C=C\CCCC(=O)O (stereo not given in full) . Is its Population Healthy Nuclei (%) strictly less than 40%?
FALSE

----------
# Tested on: Fibroblast
# protocol: Multiplex assay against human fibroblast
# Type: toxicity, cell-based
# condition_details: 48 h, 10 µM, compound concentration 10 uM, replicate 1
Collected Population Hoechst High Intensity Objects (%) values appear next to each entry.
Your answer is read as %, so omit the unit and give the number.

Identify Population Hoechst High Intensity Objects (%) associated with the compound `N#Cc1cc(F)cc(-c2nc(-c3ccc(F)cn3)no2)c1`
7

Identify Population Hoechst High Intensity Objects (%) associated with the compound `COc1ccccc1N1CCN(C[C@@H](C(=O)NC(C)(C)C)c2ccccc2)CC1.Cl.Cl`
14

Identify Population Hoechst High Intensity Objects (%) associated with the compound `CCCCC1=NC2(CCCC2)C(=O)N1Cc1ccc(-c2ccccc2-c2nnn[nH]2)cc1`
2

Identify Population Hoechst High Intensity Objects (%) associated with the compound `CN1CCN(c2cc(-c3ccccc3)nc(N)n2)CC1`
3
